Tested on: E coli carrying specific resistance determinants
Assay: MIC by broth microdilution, E coli carrying specific resistance determinants
Assay type: cell-based
Details: Escherichia coli, read-out: MIC pH422 E. coli APH(3′)-II
property: MIC (µg/mL)
Respond numerically; units are µg/mL and should not be typed.

Inquiry: // returns reported MIC for input CCC[C@@H]1C(CO)O[C@H](O[C@@H]2C(N)C[C@@H](N)C(O)[C@H]2O[C@@H]2O[C@H](CO)[C@H](O[C@H]3OC(CN)[C@@H](O)C(O)C3N)C2O)[C@@H](N)C1O (stereo partly shown)
Reply text: 4

Inquiry: // returns reported MIC for input NCC1OC(OC2C(CNC=O)OC(OC3C(O)C(N)CC(N)C3OC3OC(CO)C(O)CC3N)C2O)C(N)C(O)C1O (stereo not shown)
Reply text: 4

Just for reference, patent US11466044B2 is where these values come from.
